- study.system: CDK2/Cyclin E1 (Homo sapiens, UniProt P24941)
- test.protocol: CDK2/Cyclin E1 Caliper LabChip EZ Reader mobility shift assay
- Assay type: biochemical
- Design: purchased Eurofins 14-475
- condition.notes: read-out: Caliper Assay (CDK2/CCNE1): IC50
pIC50: −log10 of the molar value.
measured.property: pIC50

CNC(=O)[C@H](CSCc1ccccc1)NC(=O)[C@@H]1CN(C(=O)c2cnn(Cc3ccccc3)c2)CC12CN(C(=O)[C@H]1CC1(C)C)C2 [I-225] :: 6.00 to 7.00

Per the record, CNC(=O)[C@@H](NC(=O)[C@@H]1CN(C(=O)c2cnn(Cc3ccccc3)c2)CC12CN(C(=O)[C@H]1CC1(C)C)C2)[C@@H](C)OCC1CCC1 [I-144A] has pIC50 of 7.00 to 8.00

Lab note: CNC(=O)[C@@H](NC(=O)C1CN(C(=O)c2cnn(Cc3cccnc3)c2)CC12CN(C(=O)C1CC1(C)C)C2)[C@@H](C)OCc1ccccc1 (stereo partly drawn) [I-15] gave pIC50 of 6.00 to 7.00

compound C[C@@H](OCC1CCCCC1)[C@H](NC(=O)[C@@H]1CN(C(=O)c2cnn(Cc3ccccc3)c2)CC12CN(C(=O)[C@H]1CC1(C)C)C2)C(=O)O [I-477] , pIC50 observed: ≥ 8.00

Memo: COC[C@H]1CCCN(C(=O)[C@@H](NC(=O)[C@@H]2CN(C(=O)c3cncs3)CC23CN(C(=O)C(C)(C)C2CC2)C3)[C@@H](C)OC(C)C2CCC(F)(F)CC2)C1 (stereo partly drawn) [I-399] , reported pIC50: ≥ 8.00

The reported value for CC1(C)C[C@@H]1C(=O)N1CC2(CN(C(=O)c3cnn(Cc4ccccc4)c3)C[C@H]2C(=O)N2CCC[C@@H](OCC3CCCCC3)C2)C1 [I-254] in terms of pIC50 is < 5.00

###

Each item that follows carries a reported IC50.
- study.system: CDK2/Cyclin E1 (Homo sapiens, UniProt P24941)
- test.protocol: CDK2/Cyclin E1 Caliper LabChip EZ Reader mobility shift assay
- Type: biochemical
- Parameters: purchased Eurofins 14-475
- condition.notes: read-out: Caliper Assay (CDK2/CCNE1): IC50

Example cases with answers are listed next.
C[C@@H](OCC1CCOCC1)[C@H](NC(=O)[C@@H]1CN(C(=O)c2cncs2)CC12CN(C(=O)[C@H]1CC1(C)C)C2)C(=O)N1CCC[C@H](COC(F)(F)F)C1 :: 0.01 to 0.1 µM
CNC(=O)[C@@H](NC(=O)[C@H]1CN(C(=O)c2sc(Cl)nc2Cl)CC12CN(C(=O)[C@H]1CC1(C)C)C2)[C@@H](C)OCC1CCCCC1 [I-232B] :: 1 to 10 µM
CNC(=O)[C@@H](NC(=O)[C@H]1CN(Cc2ccncc2)CC12CN(C(=O)[C@H]1CC1(C)C)C2)[C@@H](C)OCc1ccccc1 [I-55B] :: > 10 µM
CNC(=O)[C@@H](NC(=O)[C@H]1CN(C(=O)c2cnc(Cl)s2)CC12CN(C(=O)[C@H]1CC1(C)C)C2)[C@@H](C)OCC1CCCCC1 [I-189B] :: > 10 µM
C[C@@H](OCC1CCCCC1)[C@H](NC(=O)[C@@H]1CN(C(=O)c2cnn(Cc3ccccc3)c2)CC12CN(C(=O)[C@H]1CC1(C)C)C2)C(=O)N1CCC(c2ccncc2)CC1 :: ≤ 0.01 µM

# evaluate next
In plain terms, CNC(=O)[C@@H](NC(=O)[C@@H]1CN(C(=O)c2cnc(Cl)s2)CC12CN(C(=O)[C@H]1CC1(C)C)C2)[C@@H](C)OCC1CCCCC1 [I-189A] has a documented IC50 of 0.1 to 1 µM

###

- study.system: CDK2/Cyclin E1 (Homo sapiens, UniProt P24941)
- test.protocol: CDK2/Cyclin E1 Caliper LabChip EZ Reader mobility shift assay
- Assay type: biochemical
- Design: purchased Eurofins 14-475
- condition.notes: read-out: Caliper Assay (CDK2/CCNE1): IC50
pIC50: −log10 of the molar value.
measured.property: pIC50

Recorded results for 5 compounds are shown here.
C[C@@H](OCC12CCC(CC1)OC2)[C@H](NC(=O)[C@@H]1CN(C(=O)c2cncs2)CC12CN(C(=O)[C@H]1CC1(C)C)C2)C(=O)N1CCC(C(F)(F)F)CC1 [I-454] :: ≥ 8.00
CNC(=O)[C@@H](NC(=O)[C@@H]1CN(C(=O)c2cncs2)CC12CN(C(=O)[C@H]1CC1(C)C)C2)C1(OCC2CCCCC2)CC1 [I-401] :: 7.00 to 8.00
CNC(=O)[C@@H](NC(=O)[C@@H]1CN(C(=O)c2cnn(Cc3ccccc3)c2)CC12CN(C(=O)CC(F)(F)F)C2)[C@@H](C)OCc1ccccc1 [I-87A] :: 6.00 to 7.00
C[C@@H](OCC1CCCCC1)[C@H](NC(=O)[C@@H]1CN(C(=O)c2cncs2)CC12CN(C(=O)[C@H]1CC1(F)F)C2)C(=O)N1CCCCC1 [I-296] :: 7.00 to 8.00
CC1(C)C[C@@H]1C(=O)N1CC2(CN(C(=O)c3cnn(Cc4ccccc4)c3)C[C@H]2C(=O)Nc2cccc(Cc3ccccc3)c2)C1 [I-75A] :: 5.00 to 6.00

Record CNC(=O)[C@@H](NC(=O)[C@@H]1CN(S(=O)(=O)c2cnn(Cc3ccccc3)c2)CC12CN(C(=O)[C@H]1CC1(C)C)C2)[C@@H](C)OCc1ccccc1 [I-79A] . Reported pIC50: < 5.00

The reported value for CNC(=O)C(NC(=O)[C@@H]1CN(C(=O)c2cncs2)CC12CN(C(=O)[C@H]1CC1(C)C)C2)c1cccc(N2CCOCC2)n1 (stereo partly drawn) [I-422] in terms of pIC50 is 5.00 to 6.00

The reported value for CCOC(=O)[C@H]1CCCN(C(=O)[C@@H](NC(=O)[C@@H]2CN(C(=O)c3cnn(Cc4ccccc4)c3)CC23CN(C(=O)[C@H]2CC2(C)C)C3)[C@@H](C)OCC2CCCCC2)C1 [I-482] in terms of pIC50 is ≥ 8.00

The measured pIC50 associated with CNC(=O)[C@@H](NC(=O)[C@@H]1CN(C(=O)c2sc(COC)nc2C)CC12CN(C(=O)[C@H]1CC1(C)C)C2)[C@@H](C)OCC1CCCCC1 [I-162A] reads 7.00 to 8.00

Entry COC[C@@H]1CCCN(C(=O)[C@@H](NC(=O)C2CN(C(=O)c3cncs3)CC23CN(C(=O)[C@H]2CC2(C)C)C3)[C@@H](C)OCC2CCCCC2)C1 (stereo partly drawn) [I-195] ; pIC50 = ≥ 8.00

response.value for CNC(=O)C(NC(=O)[C@@H]1CN(C(=O)c2cncs2)CC12CN(C(=O)[C@H]1CC1(C)C)C2)c1cccc(C2CCC(F)(F)CC2)n1 (stereo partly drawn) [I-411] (field: pIC50) = 7.00 to 8.00

The recorded pIC50 for entry CNC(=O)[C@@H](NC(=O)[C@@H]1CN(C(=O)c2cncs2)CC12CN(C(=O)[C@H]1CC1(C)C)C2)[C@H](O)CC1CCCCC1 [I-379] equals < 5.00

###

Quick reference for pIC50 among some molecules
- study.system: CDK2/Cyclin E1 (Homo sapiens, UniProt P24941)
- test.protocol: CDK2/Cyclin E1 Caliper LabChip EZ Reader mobility shift assay
- Format: biochemical
- Parameters: purchased Eurofins 14-475
- condition.notes: read-out: Caliper Assay (CDK2/CCNE1): IC50
pIC50: −log10 of the molar value.

CNC(=O)[C@@H](NC(=O)[C@H]1CN(C(=O)c2cnn(CC3CCNCC3)c2)CC12CN(C(=O)[C@H]1CC1(C)C)C2)[C@@H](C)OCc1ccccc1 [I-19B] :: < 5.00
CNC(=O)C(NC(=O)[C@@H]1CN(C(=O)c2cncs2)CC12CN(C(=O)[C@H]1CC1(C)C)C2)c1cccc(C2CCCCC2)n1 (stereo partly drawn) [I-362] :: 7.00 to 8.00
C[C@@H](OCC1CCCCC1)[C@H](NC(=O)[C@@H]1CN(C(=O)c2cncs2)CC12CN(C(=O)[C@H]1CC1(C)C)C2)C(=O)N1CCOCC1 [I-198] :: ≥ 8.00
CC1(C)C[C@@H]1C(=O)N1CC2(CN(C(=O)c3cnn(Cc4ccccc4)c3)C[C@H]2C(=O)N[C@H]2C[C@@H]2c2cccc(Cl)c2)C1 [I-140A] :: 6.00 to 7.00
COC[C@H]1CCCN(C(=O)[C@@H](NC(=O)[C@@H]2CN(C(=O)c3cncs3)CC23CN(C(=O)[C@H]2CC2(C)C)C3)[C@@H](C)OCc2ccccc2F)C1 [I-321] :: 7.00 to 8.00

// below: pIC50 requested for another molecule
pIC50 reading for CNC(=O)[C@@H](NC(=O)[C@H]1CN(C(=O)c2cnn(Cc3ccccc3)c2)CC12CN(C(=O)CC1CCC1)C2)[C@@H](C)OCc1ccccc1 [I-27B] : < 5.00

Reference source for all entries: patent US20240174680A1
